Listed next: entries and their corresponding IC50.
Biological target: NK3 (Homo sapiens, UniProt P29371)
Sequence (P29371 whole entry): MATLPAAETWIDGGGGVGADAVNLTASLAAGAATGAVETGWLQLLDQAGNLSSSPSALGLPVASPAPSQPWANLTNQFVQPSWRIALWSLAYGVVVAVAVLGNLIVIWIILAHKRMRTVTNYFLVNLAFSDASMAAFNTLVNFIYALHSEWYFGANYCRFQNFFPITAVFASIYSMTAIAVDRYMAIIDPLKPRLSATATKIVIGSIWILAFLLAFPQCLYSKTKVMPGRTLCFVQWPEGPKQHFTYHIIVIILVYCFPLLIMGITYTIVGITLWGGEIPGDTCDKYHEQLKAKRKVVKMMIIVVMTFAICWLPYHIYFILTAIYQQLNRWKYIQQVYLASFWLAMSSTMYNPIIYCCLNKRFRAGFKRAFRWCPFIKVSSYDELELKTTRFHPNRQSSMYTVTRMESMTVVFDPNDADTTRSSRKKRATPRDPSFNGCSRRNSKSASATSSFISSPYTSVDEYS
Assay: Signal transduction (ST), intracellular Ca++ (FLIPR), NK3
Type: cell-based
Details: antagonist, Ca++ transient peak, read-out: pIC50 NK3 (converted)

>  <MOLECULE>
O=C(C1CC1)N1CC2(CCN([C@H]3CCN(C(=O)c4cc(C(F)(F)F)cc(C(F)(F)F)c4)[C@H](Cc4ccccc4)C3)CC2)c2ccccc21 [Compound 37]

>  <VALUE_MEASURED>
6.76 µM

$$$$
>  <MOLECULE>
O=C(c1ccoc1)N1CCC2(CCN(C3CCN(C(=O)c4cc(C(F)(F)F)cc(C(F)(F)F)c4)C(Cc4ccccc4)C3)CC2)C1 (stereo not drawn) [Compound 7]

>  <VALUE_MEASURED>
3.31 µM

$$$$
>  <MOLECULE>
O=C1CC2(CCN([C@H]3CCN(C(=O)c4cc(C(F)(F)F)cc(C(F)(F)F)c4)[C@H](Cc4ccccc4)C3)CC2)CN1Cc1ccsc1 [Compound 29]

>  <VALUE_MEASURED>
> 10 µM

$$$$

*Q* Give the measured IC50 of O=C(C1CC1)N1CCC2(CC1)CCN(C1CCN(C(=O)c3cc(C(F)(F)F)cc(C(F)(F)F)c3)C(Cc3ccccc3)C1)C2 (stereo not drawn) [Compound 6] .
*A* > 10 µM

*Q* Give the measured IC50 of O=C1CC2(CCN([C@@H]3CCN(C(=O)c4cc(C(F)(F)F)cc(C(F)(F)F)c4)[C@H](Cc4ccccc4)C3)CC2)CN1Cc1ccsc1 [Compound 30] .
*A* > 10 µM

*Q* Give the measured IC50 of O=C(c1cc(C(F)(F)F)cc(C(F)(F)F)c1)N1CCC(N2CCC3(CC2)CCN(S(=O)(=O)c2cccs2)C3)CC1Cc1ccccc1 (stereo not drawn) [Compound 9] .
*A* > 10 µM

* * *

Molecular target: NK3 (Homo sapiens)
Assay: Signal transduction (ST), intracellular Ca++ (FLIPR), NK3
Format: cell-based
Settings: antagonist, Ca++ transient peak, read-out: pIC50 NK3 (converted)
ENDPOINT: IC50 (µM)

P. O=C(c1ccoc1)N1CCC2(CCN([C@H]3CCN(C(=O)c4cc(C(F)(F)F)cc(C(F)(F)F)c4)[C@H](Cc4ccccc4)C3)CC2)C1 [Compound 8]
Q. Cc1ccccc1CN1CC2(CCN([C@H]3CCN(C(=O)c4cc(C(F)(F)F)cc(C(F)(F)F)c4)[C@H](Cc4ccccc4)C3)CC2)CC1=O [Compound 28]
*Q* Sorting ascending by IC50, which comes first: P or Q ? Identify your pick by its label.
*A* P
(P: 0.977 µM, Q: 10.2 µM)

* * *

Biological target: NK2 (Homo sapiens, UniProt P21452)
Sequence (P21452 whole entry): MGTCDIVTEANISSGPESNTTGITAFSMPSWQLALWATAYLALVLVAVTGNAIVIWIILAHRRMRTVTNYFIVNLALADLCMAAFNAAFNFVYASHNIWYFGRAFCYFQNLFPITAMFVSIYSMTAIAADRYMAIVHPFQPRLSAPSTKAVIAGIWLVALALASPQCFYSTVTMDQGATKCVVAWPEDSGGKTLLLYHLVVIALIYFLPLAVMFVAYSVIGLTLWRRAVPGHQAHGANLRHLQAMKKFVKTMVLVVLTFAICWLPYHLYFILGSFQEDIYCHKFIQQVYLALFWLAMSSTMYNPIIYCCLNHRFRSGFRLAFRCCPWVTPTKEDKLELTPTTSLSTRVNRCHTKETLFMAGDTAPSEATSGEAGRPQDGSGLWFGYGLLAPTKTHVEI
Experiment: Signal transduction (ST), intracellular Ca++ (FLIPR), NK2
Format: cell-based
Details: antagonist, Ca++ transient peak, read-out: pIC50 NK2 (converted)
ENDPOINT: IC50 (µM)

>  <COMPOUND>
O=C1CC2(CCN([C@H]3CCN(C(=O)c4cc(C(F)(F)F)cc(C(F)(F)F)c4)[C@H](Cc4ccccc4)C3)CC2)CN1CC1CC1

>  <IC50 [µM]>
4.37

$$$$

P. O=C1CC2(CCN([C@H]3CCN(C(=O)c4cc(C(F)(F)F)cc(C(F)(F)F)c4)[C@H](Cc4ccccc4)C3)CC2)CN1Cc1ccoc1
Q. O=C(c1cc(C(F)(F)F)cc(C(F)(F)F)c1)N1CCC(N2CCC3(CC2)CCN(S(=O)(=O)c2cccs2)C3)CC1Cc1ccccc1 (stereo not drawn)
R. O=C1CC2(CCN([C@@H]3CCN(C(=O)c4cc(C(F)(F)F)cc(C(F)(F)F)c4)[C@H](Cc4ccccc4)C3)CC2)CN1Cc1ccsc1
*Q* Returns the items ordered by IC50, from maximum to minimum. Please reply with the labels ordered as requested. Many thanks.
*A* Q, P, R
(Q: 9.55 µM, P: 3.98 µM, R: 0.813 µM)

I. O=C(c1cc(C(F)(F)F)cc(C(F)(F)F)c1)N1CC[C@H](N2CCCC3(CCCN3C(=O)c3ccoc3)C2)C[C@H]1Cc1ccccc1 (stereo partly drawn)
II. Cc1ccccc1CN1CC2(CCN([C@H]3CCN(C(=O)c4cc(C(F)(F)F)cc(C(F)(F)F)c4)[C@H](Cc4ccccc4)C3)CC2)CC1=O
III. O=C1CC2(CCN([C@H]3CCN(C(=O)c4cc(C(F)(F)F)cc(C(F)(F)F)c4)[C@H](Cc4ccccc4)C3)CC2)CN1Cc1ccsc1
IV. O=C1CC2(CCN([C@@H]3CCN(C(=O)c4cc(C(F)(F)F)cc(C(F)(F)F)c4)[C@H](Cc4ccccc4)C3)CC2)CN1Cc1ccoc1
*Q* Number of compounds to sort: 4. Sort criterion: IC50, ascending. Please reply with the labels ordered as requested. Many thanks.
*A* IV, I, III, II
(IV: 1.91 µM, I: 3.63 µM, III: 5.25 µM, II: 7.59 µM)
